src = PubChem BioAssay AID1963977

- Tested on: 624824-186-R-J3-PDC multicell spheroids, viability;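 note: luminescent signal used as a stand-in for spheroid viability; spheroids exposed to agents for seven days before luminescence read; percent viability relative to DMSO vehicle control wells taken as 100%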
- assay: Anticancer human tumor 624824-186-R-J3-PDC patient-derived colon adenocarcinoma cell line growth inhibition [PI3K]
- condition_label: second compound 0.316 µM; first compound 0.1 µM; stronger effect = lower value
measured_property: viability, T/C (%)

INSERT INTO measurements (compound, tested_system, obs_value) VALUES
  ('Cn1ncnc1[C@H]1c2n[nH]c(=O)c3cc(F)cc(c23)N[C@@H]1c1ccc(F)cc1 + CC(Nc1ncnc2nc[nH]c12)c1cc2cccc(Cl)c2c(=O)n1-c1ccccc1', '624824-186-R-J3-PDC multicell spheroids, viability', 118),
  ('Cn1nccc1Nc1nccc(-c2ccn(C(CO)c3ccc(Cl)c(F)c3)c(=O)c2)n1 (stereo not drawn) + CC(Nc1ccc2c(c1)OCCn1cc(N3C(=O)OCC3C(F)F)nc1-2)C(N)=O', '624824-186-R-J3-PDC multicell spheroids, viability', 95),
  ('CC(C)n1nc(-c2ccc3oc(N)nc3c2)c2c(N)ncnc21 + COc1c(OCCCN2CCOCC2)ccc2c3n(c(=NC(=O)c4cnc(N)nc4)nc12)CCN3', '624824-186-R-J3-PDC multicell spheroids, viability', 22.2),
  ('Cn1ncnc1[C@H]1c2n[nH]c(=O)c3cc(F)cc(c23)N[C@@H]1c1ccc(F)cc1 + Cc1nc(NC(=O)N2CCCC2C(N)=O)sc1-c1ccnc(C(C)(C)C(F)(F)F)c1', '624824-186-R-J3-PDC multicell spheroids, viability', 98.8),
  ('CC1(C)CCC(Nc2ncc(C(F)(F)F)c(-c3c[nH]c4c(P(C)(C)=O)c(C#N)ccc34)n2)CN1 (stereo not drawn) + CC(Nc1ccc2c(c1)OCCn1cc(N3C(=O)OCC3C(F)F)nc1-2)C(N)=O', '624824-186-R-J3-PDC multicell spheroids, viability', 64.8),
  ('CC1(C)CCC(Nc2ncc(C(F)(F)F)c(-c3c[nH]c4c(P(C)(C)=O)c(C#N)ccc34)n2)CN1 (stereo not drawn) + CC(Nc1ncnc2nc[nH]c12)c1cc2cccc(Cl)c2c(=O)n1-c1ccccc1', '624824-186-R-J3-PDC multicell spheroids, viability', 92.4),
  ('CC(C)n1nc(-c2ccc3oc(N)nc3c2)c2c(N)ncnc21 + CC(Nc1ncnc2nc[nH]c12)c1cc2cccc(Cl)c2c(=O)n1-c1ccccc1', '624824-186-R-J3-PDC multicell spheroids, viability', 58.7),
  ('CCN1CCN(Cc2ccc(Nc3ncc(F)c(-c4cc(F)c5nc(C)n(C(C)C)c5c4)n3)nc2)CC1 + CC(Nc1ncnc2nc[nH]c12)c1cc2cccc(Cl)c2c(=O)n1-c1ccccc1', '624824-186-R-J3-PDC multicell spheroids, viability', 111),
  ('CC(Cn1ccc(-c2ccc(C#N)c(Cl)c2)n1)NC(=O)c1cc(C(C)O)[nH]n1 (stereo not drawn) + CC(Nc1ccc2c(c1)OCCn1cc(N3C(=O)OCC3C(F)F)nc1-2)C(N)=O', '624824-186-R-J3-PDC multicell spheroids, viability', 96),
  ('CC(Cn1ccc(-c2ccc(C#N)c(Cl)c2)n1)NC(=O)c1cc(C(C)O)[nH]n1 (stereo not drawn) + COc1c(OCCCN2CCOCC2)ccc2c3n(c(=NC(=O)c4cnc(N)nc4)nc12)CCN3', '624824-186-R-J3-PDC multicell spheroids, viability', 50.1),
  ('CC(=O)c1c(C)c2cnc(Nc3ccc(N4CCNCC4)cn3)nc2n(C2CCCC2)c1=O + COc1c(OCCCN2CCOCC2)ccc2c3n(c(=NC(=O)c4cnc(N)nc4)nc12)CCN3', '624824-186-R-J3-PDC multicell spheroids, viability', 26.4),
  ('Cn1ncnc1[C@H]1c2n[nH]c(=O)c3cc(F)cc(c23)N[C@@H]1c1ccc(F)cc1 + CC(Nc1ccc2c(c1)OCCn1cc(N3C(=O)OCC3C(F)F)nc1-2)C(N)=O', '624824-186-R-J3-PDC multicell spheroids, viability', 100),
  ('CC(=O)c1c(C)c2cnc(Nc3ccc(N4CCNCC4)cn3)nc2n(C2CCCC2)c1=O + CC(Nc1ccc2c(c1)OCCn1cc(N3C(=O)OCC3C(F)F)nc1-2)C(N)=O', '624824-186-R-J3-PDC multicell spheroids, viability', 104),
  ('C#Cc1c(F)ccc2cc(O)cc(-c3ncc4c(N5CC6CCC(C5)N6)nc(OCC56CCCN5CC(F)C6)nc4c3F)c12 (stereo not drawn) + CC(Nc1ncnc2nc[nH]c12)c1cc2cccc(Cl)c2c(=O)n1-c1ccccc1', '624824-186-R-J3-PDC multicell spheroids, viability', 103),
  ('CCCS(=O)(=O)Nc1ccc(F)c(C(=O)c2c[nH]c3ncc(-c4ccc(Cl)cc4)cc23)c1F + CC(Nc1ncnc2nc[nH]c12)c1cc2cccc(Cl)c2c(=O)n1-c1ccccc1', '624824-186-R-J3-PDC multicell spheroids, viability', 95.2),
  ('Cn1ncc(Cl)c1-c1cc(C(=O)NC(CN)Cc2cccc(F)c2)sc1Cl (stereo not drawn) + CC(Nc1ccc2c(c1)OCCn1cc(N3C(=O)OCC3C(F)F)nc1-2)C(N)=O', '624824-186-R-J3-PDC multicell spheroids, viability', 93),
  ('CNC(=O)c1ccc(N2C(=S)N(c3ccc(C#N)c(C(F)(F)F)c3)C(=O)C2(C)C)cc1F + CC(Nc1ccc2c(c1)OCCn1cc(N3C(=O)OCC3C(F)F)nc1-2)C(N)=O', '624824-186-R-J3-PDC multicell spheroids, viability', 90),
  ('CC1(C)CCC(Nc2ncc(C(F)(F)F)c(-c3c[nH]c4c(P(C)(C)=O)c(C#N)ccc34)n2)CN1 (stereo not drawn) + COc1c(OCCCN2CCOCC2)ccc2c3n(c(=NC(=O)c4cnc(N)nc4)nc12)CCN3', '624824-186-R-J3-PDC multicell spheroids, viability', 30.3),
  ('CC(C)n1nc(-c2ccc3oc(N)nc3c2)c2c(N)ncnc21 + CC(Nc1ccc2c(c1)OCCn1cc(N3C(=O)OCC3C(F)F)nc1-2)C(N)=O', '624824-186-R-J3-PDC multicell spheroids, viability', 36.2),
  ('C#Cc1c(F)ccc2cc(O)cc(-c3ncc4c(N5CC6CCC(C5)N6)nc(OCC56CCCN5CC(F)C6)nc4c3F)c12 (stereo not drawn) + Cc1nc(NC(=O)N2CCCC2C(N)=O)sc1-c1ccnc(C(C)(C)C(F)(F)F)c1', '624824-186-R-J3-PDC multicell spheroids, viability', 102),
  ('Cn1ncnc1[C@H]1c2n[nH]c(=O)c3cc(F)cc(c23)N[C@@H]1c1ccc(F)cc1 + COc1c(OCCCN2CCOCC2)ccc2c3n(c(=NC(=O)c4cnc(N)nc4)nc12)CCN3', '624824-186-R-J3-PDC multicell spheroids, viability', 46),
  ('C[C@@H](NC(=O)c1ncnc(N)c1Cl)c1ncc(C(=O)Nc2cc(C(F)(F)F)c(Cl)cn2)s1 + Cc1nc(NC(=O)N2CCCC2C(N)=O)sc1-c1ccnc(C(C)(C)C(F)(F)F)c1', '624824-186-R-J3-PDC multicell spheroids, viability', 114),
  ('CC(C)NCC(C(=O)N1CCN(c2ncnc3c2C(C)CC3O)CC1)c1ccc(Cl)cc1 (stereo not drawn) + Cc1nc(NC(=O)N2CCCC2C(N)=O)sc1-c1ccnc(C(C)(C)C(F)(F)F)c1', '624824-186-R-J3-PDC multicell spheroids, viability', 104);
